Items are presented alongside their recorded Max-MFI.
Molecular target: T1, human LAG-3 expressed on cells (human, UniProt P18627 23-525)
T1 construct: whole, on cells; also called HEK 293F cells expressing human LAG-3; T hybridoma-huLAG-3 cells
T1 sequence (looked up): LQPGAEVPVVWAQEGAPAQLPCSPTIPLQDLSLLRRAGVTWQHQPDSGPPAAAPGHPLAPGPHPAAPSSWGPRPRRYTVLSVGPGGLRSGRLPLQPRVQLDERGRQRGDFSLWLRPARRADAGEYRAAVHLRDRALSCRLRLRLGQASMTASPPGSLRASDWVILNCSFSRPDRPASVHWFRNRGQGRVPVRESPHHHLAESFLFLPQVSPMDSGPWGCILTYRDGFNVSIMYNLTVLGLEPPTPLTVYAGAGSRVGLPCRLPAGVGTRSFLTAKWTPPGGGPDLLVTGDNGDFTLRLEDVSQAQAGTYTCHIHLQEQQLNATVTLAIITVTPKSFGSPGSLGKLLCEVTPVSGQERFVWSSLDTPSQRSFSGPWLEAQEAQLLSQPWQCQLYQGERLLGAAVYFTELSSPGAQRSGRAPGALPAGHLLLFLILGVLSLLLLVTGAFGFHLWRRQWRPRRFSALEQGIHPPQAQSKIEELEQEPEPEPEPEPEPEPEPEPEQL
Experiment: FACS, HEK 293F huLAG-3 cells
Report only the number, with the unit MFI understood.

# example entries with known answers
Binder	Result Number
mAb742 (antibody, V domains shown, murine hybridoma anti-LAG-3 mAb) VH: QGQLQQSGAELVRPGASVTLSCKASGYTFNDYEMHWVKQTPVHGLEWIGAIDPETGGTAYNQKFKGKAILTADKSSSTAYMELRSLTSEDSAVYYCIRWGSTVFPYWGQGTLVTVS VL: DGVLTQTPLSLPVNIGDQASISCKSTKSLLNSDGFTYLDWYLQKPGQSPQLLIYLVSNRFSGVPDRFSGSGSGTDFTLKISRVEAEDLGVYYCFQSNYLPWTFGGGTKLEIK	103
mAb749 (antibody, V domains shown, murine hybridoma anti-LAG-3 mAb) VH: EVQLQQSGAELVRPGASVKVSCTASDFNIKDDYVHWVKQRPEQGLEWIGWIDPENGDTEYASKFQGKATITADTSSNTAYLQLSSLTSEDTAVYFCSTWDAEENYWGQGTTLSVSS VL: DIVLTQAAPSVPVTPGESVSISCRSSKSLLHSNGNTYLYWFLQRPGQSPQVLIYRMSNLASGVPVRFSGSGSGTAFTLRISRVEAEDVGVYYCMQHLEYPFTFGSGTKLEIK	124
mAb747 (antibody, V domains shown, murine hybridoma anti-LAG-3 mAb; also called 3502-mAb747) VH: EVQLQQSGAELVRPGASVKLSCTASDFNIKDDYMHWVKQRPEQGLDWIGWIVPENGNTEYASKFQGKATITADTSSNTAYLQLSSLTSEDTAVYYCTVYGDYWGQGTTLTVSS VL: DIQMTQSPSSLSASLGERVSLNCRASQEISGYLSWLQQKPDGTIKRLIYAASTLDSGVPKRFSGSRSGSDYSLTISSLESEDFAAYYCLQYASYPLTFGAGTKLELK	104
mAb746 (antibody, V domains shown, murine hybridoma anti-LAG-3 mAb; also called rnAb746; 3502-mAb746) VH: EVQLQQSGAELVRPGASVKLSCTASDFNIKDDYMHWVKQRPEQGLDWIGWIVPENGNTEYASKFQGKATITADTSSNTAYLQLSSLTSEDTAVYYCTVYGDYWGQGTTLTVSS VL: DIQMTQSPSSLSASLGERVSLNCRASQEISGYLSWLQQKSDGTIKRLIYAASTLDSGVPKRFSGSRSGSDYSLTISSLESEDFADYYCLQYASYPLTFGAGTKLELK	121

Kindly review the next binder as well.
For the binder shown here, mAb744 (antibody, V domains shown, murine hybridoma anti-LAG-3 mAb; also called rnAb744) VH: QVQLQQSGAELVRPGTSVTLSCKASGYTFTDYEMHWMKQTPVHGLEWIGAIDPATGGTAYNQKFKGKAILTADKSSSTAYMDFRSLTSEDSAVYYCIRWGTTVFPYWGQGTLVTVS VL: DVVLTQTPLSLPVNIGDQASISCKSTKSLLNSDGFTYLDWYLQKPGQSPQLLIYLVSNRFSGVPDRFSGSGSGTDFTLKISRVEAEDLGVYYCFQSNYLPWTFGGGTKLEIK , give the reported Max-MFI.
135
